# TESTED TARGET: Oxysterols receptor LXR-alpha (Homo sapiens, UniProt Q13133)
# Sequence (Q13133 whole entry): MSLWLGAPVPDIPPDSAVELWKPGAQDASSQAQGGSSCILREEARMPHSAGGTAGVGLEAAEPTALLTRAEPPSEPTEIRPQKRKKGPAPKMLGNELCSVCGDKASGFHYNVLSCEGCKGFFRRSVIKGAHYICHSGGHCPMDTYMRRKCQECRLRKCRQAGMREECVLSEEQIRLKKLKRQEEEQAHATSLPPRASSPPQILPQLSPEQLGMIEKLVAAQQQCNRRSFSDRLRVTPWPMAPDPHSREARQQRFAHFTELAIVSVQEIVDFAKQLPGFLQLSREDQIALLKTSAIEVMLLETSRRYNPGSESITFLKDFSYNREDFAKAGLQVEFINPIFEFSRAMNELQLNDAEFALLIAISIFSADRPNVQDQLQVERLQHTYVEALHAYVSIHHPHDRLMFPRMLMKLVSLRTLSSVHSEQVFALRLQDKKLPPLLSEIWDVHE
# ASSAY OVERVIEW: Affinity On-target Cellular interaction: (Reporter gene assay (HEK293T cells)) EUB0001166a NR1H3
# Format: functional, cell-based, HEK-293T
# Parameters: mode of action Agonist, recommended concentration 1 uM
pEC50: −log10 of the molar value.
MEASUREMENT LABEL: pEC50

[
  {
    "SMILES STRING": "CC(C)(O)c1cn(-c2ccc(-c3cccc(S(C)(=O)=O)c3)cc2)c(C(C)(C)c2ccccc2Cl)n1",
    "TESTED TARGET": "Oxysterols receptor LXR-alpha (Homo sapiens, UniProt Q13133)",
    "MEASURED VALUE": 6.70
  }
]

###

# TESTED TARGET: Peroxisome proliferator-activated receptor alpha (Homo sapiens, UniProt Q07869)
# Sequence (Q07869 whole entry): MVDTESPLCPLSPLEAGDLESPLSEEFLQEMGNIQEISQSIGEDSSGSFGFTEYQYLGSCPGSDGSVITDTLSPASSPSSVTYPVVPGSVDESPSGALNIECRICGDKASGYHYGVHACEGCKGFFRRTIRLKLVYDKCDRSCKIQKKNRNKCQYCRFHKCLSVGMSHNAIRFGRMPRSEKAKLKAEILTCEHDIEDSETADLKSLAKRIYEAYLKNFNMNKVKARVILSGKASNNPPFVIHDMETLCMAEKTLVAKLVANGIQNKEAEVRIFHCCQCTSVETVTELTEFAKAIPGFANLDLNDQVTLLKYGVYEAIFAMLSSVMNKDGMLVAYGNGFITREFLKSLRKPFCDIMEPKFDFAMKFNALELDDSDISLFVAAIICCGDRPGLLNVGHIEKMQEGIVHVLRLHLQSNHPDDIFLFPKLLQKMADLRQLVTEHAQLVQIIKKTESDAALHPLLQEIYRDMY
# ASSAY OVERVIEW: Affinity On-target Cellular interaction: (Reporter gene assay (HEK293T cells)) EUB0000581a PPARA
# Assay type: functional, cell-based, HEK-293T
# Design: mode of action Agonist, recommended concentration 1 uM
pEC50: −log10 of the molar value.
MEASUREMENT LABEL: pEC50

[
  {
    "SMILES STRING": "CC(C)c1ccc(CC(=O)N2CCC[C@@H](c3cccc(OC(C)(C)C(=O)O)c3)C2)cc1",
    "MEASURED VALUE": 7.30
  }
]

###

# TESTED TARGET: Retinoic acid receptor gamma (Homo sapiens)
# Sequence (P13631 whole entry): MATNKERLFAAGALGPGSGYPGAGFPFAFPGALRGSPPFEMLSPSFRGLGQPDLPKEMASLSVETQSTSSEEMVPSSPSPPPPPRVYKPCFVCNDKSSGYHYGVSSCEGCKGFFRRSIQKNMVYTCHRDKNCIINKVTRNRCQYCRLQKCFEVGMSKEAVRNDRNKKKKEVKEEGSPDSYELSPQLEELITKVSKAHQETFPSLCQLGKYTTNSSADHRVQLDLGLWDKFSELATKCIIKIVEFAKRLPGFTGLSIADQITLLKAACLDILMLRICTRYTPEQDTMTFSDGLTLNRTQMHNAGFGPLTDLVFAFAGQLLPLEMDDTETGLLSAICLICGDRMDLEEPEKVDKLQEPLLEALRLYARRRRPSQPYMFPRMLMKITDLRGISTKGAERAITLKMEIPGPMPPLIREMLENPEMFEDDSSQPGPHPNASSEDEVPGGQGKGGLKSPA
# ASSAY OVERVIEW: Affinity On-target Cellular interaction: (Reporter gene assay (HEK293T cells)) EUB0000835a RARG
MEASUREMENT LABEL: EC50

[
  {
    "SMILES STRING": "C[C@H]1[C@H]2CC[C@H]3[C@@H]4CC=C5C[C@@H](N(C)C)CC[C@]5(C)[C@H]4CC[C@]23CN1C",
    "MEASURED VALUE": "501 nM"
  }
]

###

# TESTED TARGET: UniProt:Q96RI1
# Sequence (Q96RI1 whole entry): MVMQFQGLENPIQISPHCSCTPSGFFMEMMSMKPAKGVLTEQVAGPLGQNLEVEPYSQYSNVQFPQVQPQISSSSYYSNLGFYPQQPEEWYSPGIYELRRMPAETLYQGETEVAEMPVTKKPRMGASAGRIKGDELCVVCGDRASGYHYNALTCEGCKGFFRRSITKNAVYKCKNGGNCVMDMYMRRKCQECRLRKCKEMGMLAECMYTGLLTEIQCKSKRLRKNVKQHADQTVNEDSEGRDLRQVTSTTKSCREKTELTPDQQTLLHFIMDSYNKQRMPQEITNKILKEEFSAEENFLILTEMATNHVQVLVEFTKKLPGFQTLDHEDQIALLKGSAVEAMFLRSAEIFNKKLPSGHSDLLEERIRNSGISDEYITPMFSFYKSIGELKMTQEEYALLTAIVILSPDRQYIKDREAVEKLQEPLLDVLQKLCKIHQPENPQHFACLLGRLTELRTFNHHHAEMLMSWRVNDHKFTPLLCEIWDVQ
# ASSAY OVERVIEW: Affinity On-target Cellular interaction: (Reporter gene assay (HEK293T cells)) EUB0000182b NR1H4
# Assay type: functional, cell-based, HEK-293T
# Parameters: mode of action Agonist, recommended concentration 1 uM

[
  {
    "SMILES STRING": "COC(=O)/C=C/c1cccc(N(Cc2ccc(-c3ccc(N(C)C)cc3)cc2)C(=O)C2CCCCC2)c1",
    "TESTED TARGET": "UniProt:Q96RI1",
    "UNIT ABBREV": "µM",
    "EC50": 0.96
  }
]

###

# TESTED TARGET: Sodium-dependent neutral amino acid transporter B(0)AT1 (Homo sapiens)
# Sequence (Q695T7 whole entry): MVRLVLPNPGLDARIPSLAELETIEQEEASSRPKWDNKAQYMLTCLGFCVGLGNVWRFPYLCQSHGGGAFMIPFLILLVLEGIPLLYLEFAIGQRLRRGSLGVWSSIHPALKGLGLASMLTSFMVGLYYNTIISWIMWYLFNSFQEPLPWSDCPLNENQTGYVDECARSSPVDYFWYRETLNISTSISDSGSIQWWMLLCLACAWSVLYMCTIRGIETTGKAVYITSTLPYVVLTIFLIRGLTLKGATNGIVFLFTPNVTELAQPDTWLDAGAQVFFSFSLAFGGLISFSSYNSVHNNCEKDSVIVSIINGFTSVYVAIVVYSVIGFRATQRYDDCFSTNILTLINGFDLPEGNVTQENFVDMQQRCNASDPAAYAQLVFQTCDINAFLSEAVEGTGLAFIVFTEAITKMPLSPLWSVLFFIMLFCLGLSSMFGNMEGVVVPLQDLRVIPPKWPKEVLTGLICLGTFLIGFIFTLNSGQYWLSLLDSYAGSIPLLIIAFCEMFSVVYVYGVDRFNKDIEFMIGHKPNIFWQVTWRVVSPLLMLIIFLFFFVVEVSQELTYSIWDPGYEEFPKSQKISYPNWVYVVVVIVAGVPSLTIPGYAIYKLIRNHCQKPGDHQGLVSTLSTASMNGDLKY
# ASSAY OVERVIEW: Affinity On-target Cellular interaction: (Fluorescence imaging plate reader (FLIPR) membrane potential (FMP) assay, MDCK cells) EUB0002537a SLC6A19
# Format: functional, cell-based
# Design: mode of action Inhibitor, recommended concentration 1 uM

[
  {
    "MOLECULE": "CCNC(=O)/C=C/c1cccc(Br)c1 [CINROMIDE]",
    "IC50 (µM)": 0.28
  }
]

###

# TESTED TARGET: Sodium- and chloride-dependent glycine transporter 1 (Homo sapiens)
# Sequence (P48067 whole entry): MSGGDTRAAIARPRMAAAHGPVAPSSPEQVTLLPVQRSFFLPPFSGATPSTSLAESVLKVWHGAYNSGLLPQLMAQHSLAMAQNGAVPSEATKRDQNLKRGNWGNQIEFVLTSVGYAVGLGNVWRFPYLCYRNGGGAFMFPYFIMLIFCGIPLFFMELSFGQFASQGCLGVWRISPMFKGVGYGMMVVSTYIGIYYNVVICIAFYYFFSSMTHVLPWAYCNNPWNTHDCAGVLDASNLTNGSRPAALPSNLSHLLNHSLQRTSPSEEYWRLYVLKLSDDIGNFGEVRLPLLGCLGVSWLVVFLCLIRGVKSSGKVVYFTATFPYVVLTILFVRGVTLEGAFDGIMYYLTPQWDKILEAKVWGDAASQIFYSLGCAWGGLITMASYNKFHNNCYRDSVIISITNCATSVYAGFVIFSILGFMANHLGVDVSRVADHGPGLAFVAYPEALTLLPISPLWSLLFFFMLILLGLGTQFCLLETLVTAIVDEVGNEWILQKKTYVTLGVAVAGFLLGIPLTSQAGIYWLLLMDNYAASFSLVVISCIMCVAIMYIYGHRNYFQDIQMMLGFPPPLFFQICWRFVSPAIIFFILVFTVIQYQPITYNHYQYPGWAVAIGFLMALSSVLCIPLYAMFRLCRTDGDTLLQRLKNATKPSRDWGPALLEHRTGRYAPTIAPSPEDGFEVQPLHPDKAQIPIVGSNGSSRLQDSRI
# ASSAY OVERVIEW: Affinity On-target Cellular interaction: (Inhibition of [14C]glycine uptake in human neuroblastoma cells transfected with SLC6A9) EUB0002626aCl SLC6A9
# Format: functional, cell-based, BE(2)-C
# Design: mode of action Inhibitor, recommended concentration 1 uM

[
  {
    "SMILES STRING": "CN(CCOc1ccc(-c2ccc3c(c2)OCO3)cc1C(C)(C)C)CC(=O)O",
    "IC50 (nM)": 15.8
  }
]

###

# TESTED TARGET: Peroxisome proliferator-activated receptor gamma (Homo sapiens, UniProt P37231)
# Sequence (P37231 whole entry): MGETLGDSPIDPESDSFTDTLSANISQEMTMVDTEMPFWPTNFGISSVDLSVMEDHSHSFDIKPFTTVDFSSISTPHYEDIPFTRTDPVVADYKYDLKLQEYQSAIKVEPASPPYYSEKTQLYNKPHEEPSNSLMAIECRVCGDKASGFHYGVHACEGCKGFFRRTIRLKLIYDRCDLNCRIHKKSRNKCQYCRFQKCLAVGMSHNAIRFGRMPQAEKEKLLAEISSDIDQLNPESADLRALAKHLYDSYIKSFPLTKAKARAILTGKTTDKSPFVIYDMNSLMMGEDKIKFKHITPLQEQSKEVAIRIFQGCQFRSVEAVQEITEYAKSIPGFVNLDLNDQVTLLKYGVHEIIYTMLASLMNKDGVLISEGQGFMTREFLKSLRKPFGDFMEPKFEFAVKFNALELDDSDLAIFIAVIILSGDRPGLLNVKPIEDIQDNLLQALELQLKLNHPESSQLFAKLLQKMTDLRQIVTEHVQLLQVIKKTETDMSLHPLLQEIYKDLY
# ASSAY OVERVIEW: Affinity On-target Cellular interaction: (Reporter gene assay (HEK293T cells)) EUB0001147a PPARG
# Assay type: functional, cell-based, HEK-293T
# Set-up: mode of action Agonist, recommended concentration 1 uM

[
  {
    "COMPOUND": "CSc1ccc(C(=O)/C=C/c2cc(C)c(OC(C)(C)C(=O)O)c(C)c2)cc1 [ELAFIBRANOR]",
    "EC50 [nM]": 410
  }
]

###

# TESTED TARGET: Monocarboxylate transporter 4 (Homo sapiens)
# Sequence (O15427 whole entry): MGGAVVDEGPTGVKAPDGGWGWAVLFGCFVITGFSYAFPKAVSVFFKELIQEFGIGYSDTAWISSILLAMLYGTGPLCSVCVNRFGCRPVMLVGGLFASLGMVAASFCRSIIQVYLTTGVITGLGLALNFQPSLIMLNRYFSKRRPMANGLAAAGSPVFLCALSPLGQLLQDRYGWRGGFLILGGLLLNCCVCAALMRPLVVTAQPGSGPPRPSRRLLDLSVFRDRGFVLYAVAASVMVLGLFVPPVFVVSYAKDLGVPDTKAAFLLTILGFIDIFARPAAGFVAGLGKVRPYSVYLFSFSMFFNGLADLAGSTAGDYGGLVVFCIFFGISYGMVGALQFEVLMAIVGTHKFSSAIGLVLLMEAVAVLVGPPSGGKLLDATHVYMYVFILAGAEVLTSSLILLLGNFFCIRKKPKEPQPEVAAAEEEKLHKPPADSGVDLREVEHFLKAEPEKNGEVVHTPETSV
# ASSAY OVERVIEW: Affinity On-target Cellular interaction: (Inhibition of lactate import in MDA-MB-231 cells) EUB0002761a SLC16A3
# Assay type: functional, cell-based
# Parameters: mode of action Inhibitor, recommended concentration 1 uM
pIC50: −log10 of the molar value.
MEASUREMENT LABEL: pIC50

[
  {
    "SMILES STRING": "CC(C)(OCc1cc(-c2cccc(OC3CC3)c2)n(-c2ccccc2Cl)n1)C(=O)O",
    "MEASURED VALUE": 8.07
  }
]

###

# TESTED TARGET: Nuclear receptor subfamily 1 group I member 3 (Homo sapiens, UniProt Q14994)
# Sequence (Q14994 whole entry): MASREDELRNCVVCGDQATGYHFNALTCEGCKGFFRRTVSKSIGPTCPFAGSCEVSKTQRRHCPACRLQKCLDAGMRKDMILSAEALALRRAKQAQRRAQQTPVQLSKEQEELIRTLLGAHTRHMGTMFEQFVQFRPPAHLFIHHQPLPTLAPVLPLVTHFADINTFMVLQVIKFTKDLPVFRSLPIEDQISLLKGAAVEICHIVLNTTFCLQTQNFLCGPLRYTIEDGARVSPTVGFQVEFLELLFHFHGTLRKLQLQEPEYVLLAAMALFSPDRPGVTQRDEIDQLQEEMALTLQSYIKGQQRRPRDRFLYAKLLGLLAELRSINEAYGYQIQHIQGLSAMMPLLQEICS
# ASSAY OVERVIEW: Affinity On-target Cellular interaction: (Reporter gene assay (HEK293T cells)) EUB0000551aCl NR1I3

[
  {
    "COMPOUND": "Cc1cccc(CN2CCN(C(c3ccccc3)c3ccc(Cl)cc3)CC2)c1 (stereo unspecified)",
    "IC50, nM": 63
  }
]

###

# TESTED TARGET: Oxysterols receptor LXR-beta (Homo sapiens)
# Sequence (P55055 whole entry): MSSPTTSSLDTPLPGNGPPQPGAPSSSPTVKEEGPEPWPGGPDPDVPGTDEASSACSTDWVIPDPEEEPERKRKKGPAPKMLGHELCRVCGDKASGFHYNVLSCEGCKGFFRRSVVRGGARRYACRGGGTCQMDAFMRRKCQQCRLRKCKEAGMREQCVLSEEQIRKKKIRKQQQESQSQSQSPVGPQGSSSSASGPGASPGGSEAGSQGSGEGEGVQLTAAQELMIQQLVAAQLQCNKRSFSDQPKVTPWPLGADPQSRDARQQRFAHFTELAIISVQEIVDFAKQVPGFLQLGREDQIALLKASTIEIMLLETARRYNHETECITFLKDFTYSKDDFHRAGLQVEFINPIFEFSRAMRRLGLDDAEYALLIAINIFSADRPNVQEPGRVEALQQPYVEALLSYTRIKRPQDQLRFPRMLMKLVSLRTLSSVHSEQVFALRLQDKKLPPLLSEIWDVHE
# ASSAY OVERVIEW: Affinity On-target Cellular interaction: (Reporter gene assay (HEK293T cells)) EUB0000183b NR1H2

[
  {
    "SMILES STRING": "Cc1cc(C)c(S(=O)(=O)N(Cc2ccc(-c3cccc(S(C)(=O)=O)c3)cc2)Cc2ccc(C(F)(F)F)o2)c(C)c1",
    "TESTED TARGET": "Oxysterols receptor LXR-beta (Homo sapiens)",
    "IC50 [nM]": 40
  }
]

###

# TESTED TARGET: Peroxisome proliferator-activated receptor gamma (Homo sapiens, UniProt P37231)
# Sequence (P37231 whole entry): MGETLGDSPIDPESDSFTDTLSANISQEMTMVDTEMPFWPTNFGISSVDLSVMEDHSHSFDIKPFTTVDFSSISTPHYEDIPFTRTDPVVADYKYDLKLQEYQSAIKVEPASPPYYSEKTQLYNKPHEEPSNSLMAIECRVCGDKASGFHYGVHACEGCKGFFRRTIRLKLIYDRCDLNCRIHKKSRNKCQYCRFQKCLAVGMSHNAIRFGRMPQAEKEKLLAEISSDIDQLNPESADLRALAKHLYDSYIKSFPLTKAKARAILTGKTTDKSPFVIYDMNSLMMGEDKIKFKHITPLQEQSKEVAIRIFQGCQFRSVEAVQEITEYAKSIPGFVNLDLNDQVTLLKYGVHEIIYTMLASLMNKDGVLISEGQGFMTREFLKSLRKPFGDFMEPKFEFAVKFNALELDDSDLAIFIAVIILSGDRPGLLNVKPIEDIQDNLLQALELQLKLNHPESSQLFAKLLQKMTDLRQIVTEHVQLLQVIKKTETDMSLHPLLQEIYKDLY
# ASSAY OVERVIEW: Affinity On-target Cellular interaction: (Reporter gene assay (HEK293T cells)) EUB0001143a PPARG
# Format: functional, cell-based, HEK-293T
# Parameters: mode of action Agonist, recommended concentration 1 uM

[
  {
    "SMILES STRING": "COc1cc2c(cc1CC=C(C)C)C(=O)C[C@@H](c1ccc(O)cc1)O2",
    "TESTED TARGET": "Peroxisome proliferator-activated receptor gamma (Homo sapiens, UniProt P37231)",
    "UNIT ABBREV": "nM",
    "EC50": 730
  }
]

From: ChEMBL document CHEMBL5723379
